- Protocol text: viability loss with induced miR-34 in A549 – imaging, A549 dox-inducible miR-34, nuclei and caspase counts, primary screen (AID 1347080); also: test concentration not given here
- Measurement context: A549 miR-34 inducible, Hoechst nuclei count, 48 h; cell number ratio, induced over uninduced
The source made the active and inactive calls.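 The calls were made as follows: active = compounds whose cell count with miR-34 switched on is under 0.7 times the count with it off; inactive = the rest.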
Outcomes: active, inactive

>  <Compound>
CO[C@@H]1[C@@H](OC(N)=O)[C@H](O)[C@H](Oc2ccc3c(O)c(NC(=O)c4ccc(O)c(CC=C(C)C)c4)c(=O)oc3c2C)OC1(C)C

>  <Label value>
inactive

$$$$
>  <Compound>
CCCCCCCCCCCCCCCC(=O)N[C@@H](COP(=O)(O)O)C(=O)O

>  <Label value>
inactive

$$$$
>  <Compound>
Cc1cc(C=CC#N)cc(C)c1Nc1ccnc(Nc2ccc(C#N)cc2)n1

>  <Label value>
inactive

$$$$
>  <Compound>
CC1(C)Oc2ccc(C#N)cc2[C@@H](OC2=CC(=O)CC2)[C@@H]1O

>  <Label value>
inactive

$$$$
>  <Compound>
Cc1ccc(-n2cc(-c3nc4c(cnn4Cc4cccnc4)[nH]3)cn2)cc1

>  <Label value>
inactive

$$$$
>  <Compound>
CC(=O)OCC(=O)[C@]12OC(C)(C)OC1C[C@H]1[C@@H]3CC(F)C4=CC(=O)C=C[C@]4(C)[C@]3(F)C(O)C[C@@]12C (some centres not stated)

>  <Label value>
inactive

$$$$
>  <Compound>
CCN1C(=O)C=CC1=O

>  <Label value>
inactive

$$$$
>  <Compound>
CCCCCCCC/C=C\CCCCCCCC(=O)OC[C@H](CO)OC(=O)CCCCCCC/C=C\CCCCCCCC

>  <Label value>
inactive

$$$$
>  <Compound>
CCc1ccc(CNC(=O)Nc2nc(C)n(C(C)C)n2)nc1

>  <Label value>
inactive

$$$$
>  <Compound>
Cc1ncc(-c2cc(C(=O)N(C)Cc3csc(C)n3)c3ccc(F)cc3n2)cn1

>  <Label value>
inactive

$$$$
>  <Compound>
O=C(O)c1cc(N(Cc2ccccc2O)Cc2cc(O)ccc2O)ccc1O

>  <Label value>
inactive

$$$$
>  <Compound>
CCC(=O)OCC(=O)[C@]1(OC(=O)CC)C(C)C[C@H]2[C@@H]3CCC4=CC(=O)C=C[C@]4(C)[C@]3(Cl)C(O)C[C@@]21C (some centres not stated)

>  <Label value>
inactive

$$$$
>  <Compound>
CCc1nc(NC(=O)NC(c2ccccc2)c2ccccc2)nn1C

>  <Label value>
inactive

$$$$
>  <Compound>
CO/N=C(\C(=O)N[C@@H]1C(=O)N2C(C(=O)O)=C(C[N+]3(C)CCCC3)CS[C@H]12)c1csc(N)n1

>  <Label value>
inactive

$$$$
>  <Compound>
C=C1C(=O)[C@@]23C(O)[C@H]1CCC2[C@]12CO[C@]3(O)C(O)[C@@H]1C(C)(C)CCC2O (some centres not stated)

>  <Label value>
inactive

$$$$
>  <Compound>
N#Cc1cc(CN2CCC(Nc3ncnc4sc(Cl)cc34)CC2)ccc1F

>  <Label value>
inactive

$$$$
>  <Compound>
CC1(C)S[C@H]2C(NC(=O)C(N)c3ccc(O)cc3)C(=O)N2C1C(=O)O (some centres not stated)

>  <Label value>
inactive

$$$$
>  <Compound>
O=c1cc(-c2ccccc2F)[nH]c2cc3c(cc12)OCO3

>  <Label value>
inactive

$$$$
>  <Compound>
CC1C[C@H]2[C@@H]3CC(F)C4=CC(=O)C=C[C@]4(C)[C@]3(F)C(O)C[C@]2(C)[C@@]1(O)C(=O)CO (some centres not stated)

>  <Label value>
inactive

$$$$
>  <Compound>
CCOC(=O)C(CCc1ccccc1)NC(C)C(=O)N1Cc2cc(OC)c(OC)cc2CC1C(=O)O (configuration not stated)

>  <Label value>
inactive

$$$$
>  <Compound>
C[C@]12CC[C@@H]3c4ccc(OS(=O)(=O)O)cc4CC[C@H]3[C@@H]1CCC2=O

>  <Label value>
inactive

$$$$
>  <Compound>
COC(=O)C1=COC(O)[C@@H]2C(CO)=CC[C@H]12 (some centres not stated)

>  <Label value>
inactive

$$$$
>  <Compound>
C=CC1=C(C(=O)O)N2C(=O)C(NC(=O)C(=NOCC(=O)O)c3csc(N)n3)C2SC1 (configuration not stated)

>  <Label value>
inactive

$$$$
>  <Compound>
Cc1ccc(NC(=O)C2CC23CCCCC3)cn1 (configuration not stated)

>  <Label value>
inactive

$$$$
>  <Compound>
CC[C@H](C)C(=O)O[C@H]1C[C@H](O)C=C2C=C[C@H](C)[C@H](CC[C@@H]3C[C@@H](O)CC(=O)O3)[C@H]21

>  <Label value>
inactive

$$$$
>  <Compound>
Cn1cc(/C=C/C(=O)N2CCc3[nH]nc(-c4ccccc4F)c3C2)cn1

>  <Label value>
inactive

$$$$
>  <Compound>
CC(C)(C)c1cc(C=C(C#N)C(N)=S)cc(C(C)(C)C)c1O

>  <Label value>
inactive

$$$$
>  <Compound>
Nc1nc2[nH]c(=O)cnc2c(=O)[nH]1

>  <Label value>
inactive

$$$$
>  <Compound>
CCOC(=O)c1[nH]c2cc(Cl)ccc2c1C(C(=O)NC(C)(C)C)N(C=O)Cc1ccc(Cl)cc1 (configuration not stated)

>  <Label value>
inactive

$$$$
>  <Compound>
C=C1CCC(O)CC1=CC=C1CCC[C@@]2(C)[C@H]1CC[C@H]2C(C)CCCC(C)(C)O (some centres not stated)

>  <Label value>
inactive

$$$$
>  <Compound>
COc1ccc(C(=O)Nc2c(Cl)cncc2Cl)cc1OC1CCCC1

>  <Label value>
inactive

$$$$
>  <Compound>
Cc1ccc(C(=O)NCCCCCC(=O)Nc2ccccc2N)cc1

>  <Label value>
inactive

$$$$
>  <Compound>
CC1OC(n2cc(F)c(=O)[nH]c2=O)C(O)C1O (configuration not stated)

>  <Label value>
active

$$$$
>  <Compound>
OCC1OC(Oc2ccc(O)cc2)C(O)C(O)C1O (configuration not stated)

>  <Label value>
inactive

$$$$
>  <Compound>
CN1[C@@H](C[C@H](O)c2ccccc2)CCC[C@H]1CC(=O)c1ccccc1

>  <Label value>
inactive

$$$$
>  <Compound>
CO[C@H]1CC(O[C@@H]2/C(C)=C/C[C@@H]3C[C@@H](C[C@]4(CC[C@H](C)[C@@H](C5CCCCC5)O4)O3)OC(=O)[C@@H]3C=C(C)/C(=N/O)[C@H]4OC/C(=C\C=C\[C@@H]2C)[C@]43O)O[C@@H](C)C1O (some centres not stated)

>  <Label value>
inactive

$$$$
>  <Compound>
COc1ccc(-c2ccc3c(N4CCOCC4C)nc(N4CCOCC4C)nc3n2)cc1CO (configuration not stated)

>  <Label value>
inactive

$$$$
